// provenance: patent US9382254B2

# testSystem: CFTR ΔF508 mutant (Homo sapiens, UniProt P13569, DEL508-508)
# Construct: expressed in transfected cells; host or cells: CFBE41o- (adenoviral transduction)
# Sequence (P13569 with tags, fused parts or gaps DEL508-508): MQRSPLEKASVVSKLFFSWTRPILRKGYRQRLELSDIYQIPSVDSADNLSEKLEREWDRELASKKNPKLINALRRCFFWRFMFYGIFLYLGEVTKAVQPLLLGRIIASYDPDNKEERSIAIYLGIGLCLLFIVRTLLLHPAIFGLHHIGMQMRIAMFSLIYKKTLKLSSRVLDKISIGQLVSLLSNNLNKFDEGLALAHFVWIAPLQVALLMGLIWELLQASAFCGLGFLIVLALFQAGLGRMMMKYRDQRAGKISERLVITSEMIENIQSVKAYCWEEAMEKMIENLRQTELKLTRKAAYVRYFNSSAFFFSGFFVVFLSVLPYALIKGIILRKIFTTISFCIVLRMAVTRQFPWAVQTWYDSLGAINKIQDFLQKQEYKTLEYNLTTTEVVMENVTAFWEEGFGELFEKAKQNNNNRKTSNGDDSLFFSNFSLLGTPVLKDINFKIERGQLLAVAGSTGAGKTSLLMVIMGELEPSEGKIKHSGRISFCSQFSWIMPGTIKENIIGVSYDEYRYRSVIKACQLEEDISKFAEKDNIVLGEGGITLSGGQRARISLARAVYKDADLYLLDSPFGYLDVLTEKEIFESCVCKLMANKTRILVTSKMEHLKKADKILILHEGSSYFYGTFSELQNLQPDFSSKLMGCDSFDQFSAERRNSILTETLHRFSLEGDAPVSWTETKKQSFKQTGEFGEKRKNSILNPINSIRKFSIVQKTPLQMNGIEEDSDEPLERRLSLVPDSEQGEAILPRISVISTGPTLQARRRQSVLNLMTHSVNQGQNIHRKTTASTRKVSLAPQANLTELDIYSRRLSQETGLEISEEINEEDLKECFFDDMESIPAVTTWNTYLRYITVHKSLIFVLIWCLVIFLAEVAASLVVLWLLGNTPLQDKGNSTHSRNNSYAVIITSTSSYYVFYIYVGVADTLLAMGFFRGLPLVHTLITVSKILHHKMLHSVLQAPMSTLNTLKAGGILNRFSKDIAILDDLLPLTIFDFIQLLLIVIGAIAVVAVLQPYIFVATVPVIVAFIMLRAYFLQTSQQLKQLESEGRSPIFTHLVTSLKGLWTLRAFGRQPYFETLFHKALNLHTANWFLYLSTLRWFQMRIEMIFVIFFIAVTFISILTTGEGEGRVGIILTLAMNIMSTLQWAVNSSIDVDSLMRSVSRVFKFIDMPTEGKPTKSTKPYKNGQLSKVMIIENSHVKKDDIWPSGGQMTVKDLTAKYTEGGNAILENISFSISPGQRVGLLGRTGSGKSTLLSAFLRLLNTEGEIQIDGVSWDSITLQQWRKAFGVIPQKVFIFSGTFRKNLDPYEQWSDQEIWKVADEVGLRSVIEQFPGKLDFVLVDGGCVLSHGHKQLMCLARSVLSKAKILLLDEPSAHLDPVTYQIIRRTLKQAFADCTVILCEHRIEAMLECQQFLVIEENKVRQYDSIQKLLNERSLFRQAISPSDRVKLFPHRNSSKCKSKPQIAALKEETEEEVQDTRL
# procedureText: YFP-halide influx assay for the CFTR-ΔF508 mutation (384 well, FDSS/μCell)
# Assay type: cell-based
# testParameters: CFBE41o- cells, CFTR-ΔF508, 1×D-PBS, fluorescence after 36 seconds
pEC50: −log10 of the molar value.
valueType: pEC50

Example entries begin here.
- compoundStructureString: "CC(C)(O)C(=O)Nc1sc(S(=O)(=O)c2ccc(C(F)(F)F)cc2F)cc1C(N)=O"
  testSystem: "CFTR ΔF508 mutant (Homo sapiens, UniProt P13569, DEL508-508)"
  valueType: "pEC50"
  testResult: 8.09
- compoundStructureString: "CC(C)(O)C(=O)Nc1sc(S(=O)(=O)c2cccnc2C(F)(F)F)cc1C(N)=O"
  testSystem: "CFTR ΔF508 mutant (Homo sapiens, UniProt P13569, DEL508-508)"
  valueType: "pEC50"
  testResult: 7.49
- compoundStructureString: "C[C@@H](O)C(=O)Nc1sc(S(=O)(=O)c2ccc(F)cc2)cc1C(N)=O"
  testSystem: "CFTR ΔF508 mutant (Homo sapiens, UniProt P13569, DEL508-508)"
  valueType: "pEC50"
  testResult: 6.87
- compoundStructureString: "COc1ccc(CN(C)S(=O)(=O)c2cc(C(N)=O)c(NC(=O)c3cc[nH]n3)s2)cc1F"
  testSystem: "CFTR ΔF508 mutant (Homo sapiens, UniProt P13569, DEL508-508)"
  valueType: "pEC50"
  testResult: 6.68

[I] CC(C)(O)C(=O)Nc1sc(S(=O)(=O)c2c(Cl)cccc2Cl)cc1C(N)=O
[II] COc1ccc(OC)c(S(=O)(=O)c2cc(C(N)=O)c(NC(=O)c3ccccc3F)s2)c1
Ask | Param pair: I , II . Output: the one whose pEC50 is numerically greater. // respond with label for picked entry
Reply | I
(I: 8.26, II: 6.36)

[a] CC(C)(O)C(=O)Nc1sc(S(=O)(=O)c2ncccc2Cl)cc1C(N)=O
[b] CC(C)N(C)S(=O)(=O)c1cc(C(N)=O)c(NC(=O)c2ccccc2F)s1
Ask | I'm curious, which of these has a smaller pEC50 number: a or b ? // respond with label for picked entry
Reply | a
(a: 6.62, b: 7.34)
